Every entry's value here was drawn from paper PMC10397247.

# Tested on: T1, 4H3601-bN
# T1 chain: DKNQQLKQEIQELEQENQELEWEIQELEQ
# Method notes: two-hybrid library CCNG1;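 also: natural log of median RNA to DNA barcode read ratio; higher means stronger binding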
Observation type: interaction score
The response must contain the number and no unit.

Query: Quick one: interaction score for DENQQLEQKIQELKQKIQELKWENQELEQ [4H1387-bN] ?
Reply: -0.293

Query: Return reported interaction score; argument: DKNQQLKQEIQELEQEIQELEWKNQELKQ [4H3592-bN]
Reply: -0.0551

Query: Which interaction score is listed for DENQQLEQENQELEQKIQELKWEIQELEQ [4H1193-bN] ?
Reply: -0.788

Query: Requested read-out: interaction score. Entry: DENQQLEQKIQELKQKNQELKWKIQELKQ [4H1406-bN]
Reply: 1.53

Query: Query (binder): DENQQLEQEIQELEQKIQELKWKNQELKQ [4H1072-bN] ; field requested: interaction score
Reply: -0.0449

Query: Would you mind telling me what interaction score value was observed for DKNQQLKQEIQELEQENQELEWEIQELEQ [4H3601-bN] ?
Reply: -1.57
